Kindly state GI50 for each of the entries shown.
- System: SNB-19
- testDescription: NCI tumour cell line growth inhibition, 48 h
Active and inactive are the calls of the source. No stated cut-off is given here; in the data, active = GI50 up to about 1.1 µM and inactive = higher.

Guide cases for GI50, answers given:
# molecule, GI50
measured = [
    ("C[C@]12CC[C@H](O)C[C@H]1CC[C@@H]1[C@@H]2CC[C@]2(C)[C@@H](C3=CC(=O)OC3)CC[C@]12O", "0.851 µM (active)"),
    ("CCN1CCCc2cc3c(C(F)(F)F)cc(=O)oc3cc21", "> 100 µM (inactive)"),
    ("CC(=O)OC(C)C(=O)C1c2cccc(O)c2C(=O)c2c(O)cc(C)cc21 (stereo not given)", "0.344 µM (active)"),
]

Need GI50 for each of these molecules.
1. CCCN1C(=O)CCC2=C1CCc1c2ccc(Cl)c1Cl
2. c1ccc2[nH]c3[nH]c4[nH]c5ccccc5[nH]c4[nH]c3[nH]c2c1
3. COc1ccc2c(c1)O[C@H]1c3ccc(O)cc3OC[C@@H]21
4. NCC(O)CN.Oc1c(Cl)c(Cl)c(Cl)c(Cl)c1Cl
5. CCN1CCC(O)(/C=C/c2ccccc2)C(C(=O)/C=C/c2ccccc2)C1 (stereo not given)

Marked response:
1: 26.8 µM (inactive); 2: > 100 µM (inactive); 3: 68.1 µM (inactive); 4: 21 µM (inactive); 5: 9.98 µM (inactive)

Need GI50 for each of these molecules.
1. CCOC(=O)C1=COC(C)(C)CC1=O
2. CC1OC(=O)C(O)=C1O (stereo not given)

Marked response:
1: > 100 µM (inactive); 2: > 100 µM (inactive)

---

- Tested on: A549
- testDescription: NCI tumour cell line growth inhibition, 48 h
Activity calls are given as the source filed them. Rule as the data show it: active = GI50 up to about 1.1 µM and inactive = higher.
readoutName: GI50

# compound, studyTarget, GI50
measured = [
    ("COc1ccc(CNc2nc3cc(C(F)(F)F)ccc3nc2C(=O)O)cc1", "A549", "28.8 µM (inactive)"),
    ("NNC(=S)N/N=C(\\C(=O)Nc1cccc(O)c1)C1C(=O)NC(=S)NC1=O", "A549", "> 100 µM (inactive)"),
    ("CC1=C(C(=O)Nc2ccccc2C)C(c2ccc(Cl)c(Cl)c2)C(C(=O)Nc2ccccc2C)=C(C)N1", "A549", "24.2 µM (inactive)"),
    ("COC(=O)C#CC(N)=O", "A549", "> 100 µM (inactive)"),
    ("O=C(O)C(Cc1cccs1)C(=O)O", "A549", "> 100 µM (inactive)"),
    ("Cc1nc2ccccc2c(-n2cccn2)c1CCn1cccn1", "A549", "> 100 µM (inactive)"),
]

Need GI50 for each of these compounds.
1. Cc1ccc(S(=O)(=O)N(c2ccccc2F)C2CCCCC2O)cc1 (stereo not given)
2. COC1/C=C(C)/C=C/C(C)/C=C/C(=O)OC(/C(C)=C/C=C(\C)CNC(=O)[C@H](CO)NC=O)C(C)/C=C/C=C/C(OC)CC/C=C(C)/C=C/C1 (stereo not given in full)
3. Cc1cccc(NC(=O)C(=O)C2C(=O)NC(=O)NC2=O)c1C
4. Cc1ccc(C2[C@H]3C(=O)N(c4ccc(Cc5ccc(N6C(=O)[C@@H]7ON(c8ccccc8)C(c8ccc(C)cc8)[C@@H]7C6=O)cc5)cc4)C(=O)[C@H]3ON2c2ccccc2)cc1 (stereo not given in full)

Marked response:
["35.2 µM (inactive)", "0.0307 µM (active)", "> 100 µM (inactive)", "> 100 µM (inactive)"]
